The origin of these recorded values is patent US20250195513A1.

tested.on: IRAK4 (Homo sapiens, UniProt Q9NWZ3)
Construct: endogenous in cells; host or cells: Karpas299
Sequence (Q9NWZ3 whole entry): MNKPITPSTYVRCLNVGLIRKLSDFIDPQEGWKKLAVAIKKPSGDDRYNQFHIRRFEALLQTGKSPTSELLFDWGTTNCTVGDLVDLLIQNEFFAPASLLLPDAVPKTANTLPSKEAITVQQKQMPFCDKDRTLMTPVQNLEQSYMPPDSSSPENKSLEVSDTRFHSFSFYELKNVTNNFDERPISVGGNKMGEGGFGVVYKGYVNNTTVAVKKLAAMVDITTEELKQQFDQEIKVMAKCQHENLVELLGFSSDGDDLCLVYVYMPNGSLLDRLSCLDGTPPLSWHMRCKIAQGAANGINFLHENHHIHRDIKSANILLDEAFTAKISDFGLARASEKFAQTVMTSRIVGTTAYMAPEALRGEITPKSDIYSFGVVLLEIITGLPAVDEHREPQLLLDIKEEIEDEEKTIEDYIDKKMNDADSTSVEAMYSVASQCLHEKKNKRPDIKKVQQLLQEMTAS
assay.info: IRAK4 Degradation Assay (Karpas299, HTRF/TR-FRET)
Assay type: cell-based
conditions.used: Karpas-299 cells, 24 h treatment; maximum percentage of degradation; read-out: IRAK4 in Karpas-299 (24 h) Dmax (%)
quantity.name: Dmax (%)

| query.smiles | tested.on | Dmax [%] |
| --- | --- | --- |
| CC(C)(O)c1cc2nn([C@H]3CC[C@H](N4CCN(C(=O)[C@@H]5CCN(c6cc(F)c([C@H]7CCC(=O)NC7=O)c(F)c6)C5)CC4)CC3)cc2cc1NC(=O)c1ccc2cc(C#N)cnn12 | IRAK4 (Homo sapiens, UniProt Q9NWZ3) | 97 |
| C[C@@H]1CN(C(=O)C2CN(c3cc(F)c(N4CCC(=O)NC4=O)c(F)c3)C2)CCN1[C@H]1CC[C@H](n2cc3cc(NC(=O)c4ccc5cc(C#N)cnn45)c(C(C)(C)O)cc3n2)CC1 | IRAK4 (Homo sapiens, UniProt Q9NWZ3) | 101 |
| CC(C)(O)c1cc2nn([C@H]3C[C@H](N4CCN(C5CCN(c6cc(F)c([C@H]7CCC(=O)NC7=O)c(F)c6)CC5)CC4)C3)cc2cc1NC(=O)c1ccc2cc(C#N)cnn12 | IRAK4 (Homo sapiens, UniProt Q9NWZ3) | 96 |
| CC(C)(O)c1cc2nn(C3CCN(C4CCN(C(=O)C5CN(c6cc(F)c([C@H]7CCC(=O)NC7=O)c(F)c6)C5)CC4)CC3)cc2cc1NC(=O)c1cccn(C2CC2)c1=O | IRAK4 (Homo sapiens, UniProt Q9NWZ3) | 78 |
| C[C@@H]1CN(C(=O)C2CN(c3cc(F)c([C@H]4CCC(=O)NC4=O)c(F)c3)C2)CCN1[C@H]1CC[C@H](n2cc3cc(NC(=O)c4ccc5cc(C#N)cnn45)c(C(C)(C)O)cc3n2)CC1 | IRAK4 (Homo sapiens, UniProt Q9NWZ3) | 99 |
